# Test system: human Factor 7 mRNA
# assay-procedure: Antisense inhibition of human Factor 7 mRNA in HepB3 cells, lipofectin, 50 nM, real-time RT-PCR
# Type: cell-based
# experimental-conditions: HepB3 cells; gapmers targeted to nucleobases 11830 to 11869 of SEQ ID NO: 1 (Table 9)
In the oligonucleotide strings, read from the 5' end, every base follows the letter of its sugar. An asterisk marks phosphorothioate; unmarked linkages are phosphodiester. Other units and linkages are bracketed, terminal groups are in braces. A string of capitals states the bases alone. e = 2'-O-(2-methoxyethyl) (MOE); [5mC] = 5-methylcytosine; d = 2'-deoxy (DNA)
Answer each item with its documented % Inhibition of human Factor 7 mRNA levels.
Answers are plain numbers, in %.

[[record]]
substance = "422163 (antisense eA*eG*eA*d[5mC]*dA*dA*dT*dG*dG*dT*d[5mC]*dA*dG*dG*dG*d[5mC]*dT*eG*eG*eT) [compound 422163]"
measurement = 56

[[record]]
substance = "416549 (antisense eG*eA*e[5mC]*eA*eA*dT*dG*dG*dT*d[5mC]*dA*dG*dG*dG*d[5mC]*eT*eG*eG*eT*eT) [compound 416549]"
measurement = 69

[[record]]
substance = "422096 (antisense eA*eG*eA*e[5mC]*eA*dA*dT*dG*dG*dT*d[5mC]*dA*dG*dG*dG*e[5mC]*eT*eG*eG*eT) [compound 422096]"
measurement = 76


Batch of 3 substances: report % Inhibition of human Factor 7 mRNA levels for each.
1. 422103 (antisense eG*e[5mC]*eT*eG*eA*dG*dG*dA*dG*dA*d[5mC]*dA*dA*dT*dG*eG*eT*e[5mC]*eA*eG) [compound 422103]
2. 422242 (antisense eG*eG*dA*dG*dA*d[5mC]*dA*dA*dT*dG*dG*dT*d[5mC]*dA*dG*eG*eG*e[5mC]*eT*eG) [compound 422242]
3. 422173 (antisense e[5mC]*eT*eG*dG*d[5mC]*dT*dG*dA*dG*dG*dA*dG*dA*d[5mC]*dA*dA*dT*eG*eG*eT) [compound 422173]

38
64
51

---

Please go through the items and note down their % Inhibition (human Factor 7 mRNA).
# System: human Factor 7 mRNA
# assay-procedure: Antisense inhibition of human Factor 7 mRNA in HepB3 cells, lipofectin, 50 nM, real-time RT-PCR
# Format: cell-based
# experimental-conditions: Example 1; HepB3 cells, lipofectin, 50 nM, ~24 h, relative to untreated control cells
In the oligonucleotide strings, read from the 5' end, every base follows the letter of its sugar. An asterisk marks phosphorothioate; unmarked linkages are phosphodiester. Other units and linkages are bracketed, terminal groups are in braces. A string of capitals states the bases alone. e = 2'-O-(2-methoxyethyl) (MOE); [5mC] = 5-methylcytosine; d = 2'-deoxy (DNA)
Kindly write the number and append the unit.

Below: 2 substances and their reported % Inhibition (human Factor 7 mRNA).
[[record]]
substance = "407914 (antisense e[5mC]*e[5mC]*eA*eG*e[5mC]*dT*dG*dA*d[5mC]*dG*dA*dT*dG*d[5mC]*d[5mC]*e[5mC]*eG*eT*e[5mC]*eA) [compound 407914]"
measurement = "82%"

[[record]]
substance = "407616 (antisense eT*eG*e[5mC]*eA*eG*dG*dA*d[5mC]*dA*d[5mC]*d[5mC]*d[5mC]*d[5mC]*dG*dT*e[5mC]*eT*eG*e[5mC]*e[5mC]) [compound 407616]"
measurement = "64%"


Please find the next substance below.
Recorded % Inhibition (human Factor 7 mRNA) of 407955 (antisense eT*eG*eT*eG*eA*dA*dA*dT*dA*dT*d[5mC]*dA*dT*dT*dG*eA*e[5mC]*eA*eA*eG) [compound 407955] , please.
3%

---

# System: human Factor 7 mRNA
# assay-procedure: Dose-dependent antisense inhibition of human Factor 7 in HepB3 cells, transfection with lipofectin
# Assay type: cell-based
# experimental-conditions: Example 5; HepB3, lipofectin, 12.5 nM, ~16 h
# Description: Cells were plated at a density of 4,000 cells per well and treated with lipofectin reagent with 3.125 nM, 6.25 nM, 12.5 nM, 25 nM, 50 nM, and 100 nM concentrations of antisense oligonucleotide, as indicated in Table 3. After a treatment period of approximately 16 hours, RNA was isolated from the cells and Factor 7 mRNA levels were measured by real-time RT-PCR, as described herein. […] Factor 7 mRNA levels were adjusted according to total RNA content as measured by RIBOGREEN®. […]
In the oligonucleotide strings, read from the 5' end, every base follows the letter of its sugar. An asterisk marks phosphorothioate; unmarked linkages are phosphodiester. Other units and linkages are bracketed, terminal groups are in braces. A string of capitals states the bases alone. e = 2'-O-(2-methoxyethyl) (MOE); [5mC] = 5-methylcytosine; d = 2'-deoxy (DNA)
Kindly supply the reported percent inhibition of Factor 7 mRNA, 12.5 nM values for the records listed here.
Give bare numbers, in %.

Sample records with percent inhibition of Factor 7 mRNA, 12.5 nM:
[[record]]
substance = "407939 (antisense eT*eG*e[5mC]*eA*eG*d[5mC]*d[5mC]*d[5mC]*dG*dG*d[5mC]*dA*d[5mC]*d[5mC]*d[5mC]*eA*eG*e[5mC]*eG*eA) [compound 407939]"
units_of_measure = "%"
measurement = 57

[[record]]
substance = "416472 (antisense e[5mC]*eA*eG*e[5mC]*e[5mC]*dT*dT*dG*dG*d[5mC]*dT*dT*dT*d[5mC]*dT*e[5mC]*eT*e[5mC]*e[5mC]*eA) [compound 416472]"
units_of_measure = "%"
measurement = 44


State the recorded percent inhibition of Factor 7 mRNA, 12.5 nM for every item in the following list.
1. 416549 (antisense eG*eA*e[5mC]*eA*eA*dT*dG*dG*dT*d[5mC]*dA*dG*dG*dG*d[5mC]*eT*eG*eG*eT*eT) [compound 416549]
2. 416438 (antisense e[5mC]*eA*eG*eG*eA*dG*d[5mC]*d[5mC]*d[5mC]*d[5mC]*d[5mC]*dA*dT*dT*d[5mC]*eT*eG*eG*e[5mC]*eA) [compound 416438]
3. 416477 (antisense e[5mC]*eA*eG*e[5mC]*e[5mC]*dT*dG*dA*dG*dG*d[5mC]*d[5mC]*dA*dG*d[5mC]*eA*eG*eA*eT*e[5mC]) [compound 416477]
4. 416449 (antisense eT*eA*eG*eG*eT*dA*dT*dT*dT*dT*dT*d[5mC]*d[5mC]*dA*d[5mC]*eA*eT*eG*eG*eA) [compound 416449]
5. 416446 (antisense eG*eG*eT*e[5mC]*eA*d[5mC]*dT*dG*d[5mC]*dA*dG*dT*dA*d[5mC]*dT*eG*e[5mC]*eT*e[5mC]*eA) [compound 416446]

1: 44; 2: 33; 3: 46; 4: 33; 5: 24

---

# Test system: human Factor 7 mRNA
# assay-procedure: Inhibition of human Factor 7 mRNA by 2-10-2 MOE shortmers in HepB3 cells, electroporation, 1,000 nM
# Format: cell-based
# experimental-conditions: electroporation, 1,000 nM oligonucleotide, approximately 24 hours, relative to untreated control cells
In the oligonucleotide strings, read from the 5' end, every base follows the letter of its sugar. An asterisk marks phosphorothioate; unmarked linkages are phosphodiester. Other units and linkages are bracketed, terminal groups are in braces. A string of capitals states the bases alone. e = 2'-O-(2-methoxyethyl) (MOE); [5mC] = 5-methylcytosine; d = 2'-deoxy (DNA)
I'd appreciate it if you could supply % inhibition of human Factor 7 mRNA values for the items below.
One number for each entry, in %.

Please review the following examples before continuing.
[[record]]
substance = "435487 (antisense eA*eG*dT*d[5mC]*d[5mC]*dT*dG*dG*dG*dT*d[5mC]*dA*eT*e[5mC]) [compound 435487]"
units_of_measure = "%"
measurement = 36

[[record]]
substance = "435667 (antisense eA*eA*dT*dT*d[5mC]*dG*dG*d[5mC]*d[5mC]*dT*dT*dG*eG*eG) [compound 435667]"
units_of_measure = "%"
measurement = 16

[[record]]
substance = "435752 (antisense eT*eG*d[5mC]*dA*dG*d[5mC]*dT*dT*dG*d[5mC]*d[5mC]*dA*eG*eG) [compound 435752]"
units_of_measure = "%"
measurement = 12

[[record]]
substance = "435662 (antisense eT*eG*dG*dA*dT*dA*dT*dT*d[5mC]*dA*dA*d[5mC]*eT*eG) [compound 435662]"
units_of_measure = "%"
measurement = 19

[[record]]
substance = "435792 (antisense eT*eG*d[5mC]*dT*dG*dA*dA*dG*dA*dA*dA*d[5mC]*eT*eG) [compound 435792]"
units_of_measure = "%"
measurement = 9


Report % inhibition of human Factor 7 mRNA for each item below.
1. 435649 (antisense eA*eG*dG*d[5mC]*dA*dG*dA*dA*dG*d[5mC]*dA*dG*eA*eT) [compound 435649]
2. 435656 (antisense eA*e[5mC]*dT*dG*d[5mC]*dT*d[5mC]*dA*d[5mC]*dA*dG*d[5mC]*e[5mC]*eG) [compound 435656]

1: 21; 2: 58
